Every entry's value here was drawn from patent US5211944A.

- methodDescription: in vitro
- measurementContext: ID50, FLU-A, B-Portchalm experiment
observationType: CC50 (µg/mL)
Kindly answer with a numeric value in µg/mL, unit omitted.

Which CC50 is listed for `NC(=O)c1ncn([C@@H]2O[C@H](CO)[C@@H](O)[C@H]2O)n1` ?
68

###

- methodDescription: in vitro
- measurementContext: ID50, MEAN, RSV experiments, mean
observationType: CC50
Write the quantity with the unit trailing the number.

Which CC50 is listed for `NC(=O)c1ncn([C@@H]2O[C@H](CO)[C@@H](O)[C@H]2O)n1` ?
946 µg/mL

###

- methodDescription: in vitro
- measurementContext: ID50, FLU-A, B-Japan experiment
observationType: CC50 (µg/mL)
Kindly answer with a numeric value in µg/mL, unit omitted.

Which CC50 is listed for NC(=O)c1ncn([C@@H]2O[C@H](CO)[C@@H](O)[C@H]2O)n1 [Ribavirin] ?
78

###

- methodDescription: in vitro
- measurementContext: ID50, RSV B-46791 experiment
observationType: CC50 (µg/mL)
Kindly answer with a numeric value in µg/mL, unit omitted.

Which CC50 is listed for NC(=O)c1ncn([C@@H]2O[C@H](CO)[C@@H](O)[C@H]2O)n1 [Ribavirin] ?
1000

###

- methodDescription: in vitro
- measurementContext: ID50, RSV B-47063 experiment
observationType: CC50 (µg/mL)
Kindly answer with a numeric value in µg/mL, unit omitted.

Which CC50 is listed for `NC(=O)c1ncn([C@@H]2O[C@H](CO)[C@@H](O)[C@H]2O)n1` ?
1000

###

- methodDescription: in vitro
- measurementContext: ID50, PIV-3 experiment
observationType: CC50 (µg/mL)
Kindly answer with a numeric value in µg/mL, unit omitted.

Which CC50 is listed for `NC(=O)c1ncn([C@@H]2O[C@H](CO)[C@@H](O)[C@H]2O)n1` ?
1000

###

- methodDescription: Uninfected toxicity controls, i.p. treatment (HSV-2 study)
- Type: in vivo, Swiss Webster mice
- measurementContext: mouse, in vivo, ip; 30 mg/kg/day i.p.; uninfected toxicity controls; read-out: Survivors (%)
observationType: survival (%)
Kindly answer with a numeric value in %, unit omitted.

Which survival is listed for Nc1nc(O)c2ncn(COC(CO)CO)c2n1 [Ganciclovir] ?
100

###

- methodDescription: in vitro
- measurementContext: ID50, FLU-B, B-HongKong experiment
observationType: CC50

Which CC50 is listed for `NC(=O)c1ncn([C@@H]2O[C@H](CO)[C@@H](O)[C@H]2O)n1` ?
80 µg/mL

###

- methodDescription: in vitro
- measurementContext: ID50, RSV A-Tracy experiment
observationType: CC50 (µg/mL)
Kindly answer with a numeric value in µg/mL, unit omitted.

Which CC50 is listed for NC(=O)c1ncn([C@@H]2O[C@H](CO)[C@@H](O)[C@H]2O)n1 [Ribavirin] ?
1000

###

- methodDescription: Uninfected toxicity controls, topical treatment (HSV-2 study)
- Format: in vivo, Swiss Webster mice
- measurementContext: mouse, in vivo, topical or ocular; 5% topical; uninfected toxicity controls; read-out: Survivors (%)
observationType: survival (%)
Kindly answer with a numeric value in %, unit omitted.

Which survival is listed for `Nc1nc2c(ncn2COCCO)c(=O)[nH]1` ?
100

###

- methodDescription: in vitro
- measurementContext: ID50, PIV-1 experiment
observationType: CC50 (µg/mL)
Kindly answer with a numeric value in µg/mL, unit omitted.

Which CC50 is listed for `NC(=O)c1ncn([C@@H]2O[C@H](CO)[C@@H](O)[C@H]2O)n1` ?
1000
